- measurement-target: Lysyl oxidase homolog 2 (Homo sapiens)
- Sequence (Q9Y4K0 whole entry): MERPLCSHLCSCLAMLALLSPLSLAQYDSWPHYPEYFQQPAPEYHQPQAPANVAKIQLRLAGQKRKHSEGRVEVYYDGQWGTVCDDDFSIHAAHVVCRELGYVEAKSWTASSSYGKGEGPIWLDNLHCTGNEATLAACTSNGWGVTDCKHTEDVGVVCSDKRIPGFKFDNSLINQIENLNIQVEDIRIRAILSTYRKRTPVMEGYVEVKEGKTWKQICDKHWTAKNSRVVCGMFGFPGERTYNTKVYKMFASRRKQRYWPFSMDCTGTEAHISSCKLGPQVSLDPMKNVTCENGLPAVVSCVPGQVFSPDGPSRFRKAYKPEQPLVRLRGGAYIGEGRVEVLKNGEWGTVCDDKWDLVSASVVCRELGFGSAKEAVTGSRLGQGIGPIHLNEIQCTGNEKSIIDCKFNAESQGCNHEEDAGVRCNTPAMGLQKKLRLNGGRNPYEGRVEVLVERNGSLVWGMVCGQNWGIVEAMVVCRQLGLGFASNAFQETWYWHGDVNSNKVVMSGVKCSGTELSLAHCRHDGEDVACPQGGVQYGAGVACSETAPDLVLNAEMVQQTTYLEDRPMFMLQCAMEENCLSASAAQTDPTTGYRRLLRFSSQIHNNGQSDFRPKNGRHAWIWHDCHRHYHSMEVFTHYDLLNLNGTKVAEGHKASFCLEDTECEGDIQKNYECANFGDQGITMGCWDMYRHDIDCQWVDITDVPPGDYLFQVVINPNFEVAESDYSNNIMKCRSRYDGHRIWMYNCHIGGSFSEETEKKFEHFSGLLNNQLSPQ
- assay: Inhibition of recombinant LOXL2 (unknown origin) expressed in NS0 cells using diaminopentane as substrate preincubated for 30 mins followed by substrate addition measured after 1 hr by fluorimetric method
pIC50: −log10 of the molar value.
The threshold is inclusive: pIC50 of exactly 6 counts as TRUE; values below receive FALSE.

{"compound": "N#CCCN", "class": "TRUE"}
{"compound": "CN(C)C(=S)SSC(=S)N(C)C", "class": "TRUE"}
{"compound": "CC1=NN(c2ccccc2)C(=O)/C1=C/NNc1nnc(C)c(O)n1", "class": "FALSE"}
{"compound": "[O-][n+]1ccccc1S", "class": "FALSE"}
{"compound": "CCN(CC)C(=S)SSC(=S)N(CC)CC", "class": "TRUE"}
{"compound": "O=c1c2ccc(-c3cccs3)nc2[nH]n1-c1ccccc1", "class": "FALSE"}
{"compound": "Cc1cc(C)c2c(=O)n(-c3ccccc3)[nH]c2n1", "class": "FALSE"}
{"compound": "Cc1cc(-c2ccc3c(=O)n(-c4ccccc4)[nH]c3n2)c(C)o1", "class": "FALSE"}
{"compound": "CC1=NN(c2ccccc2)C(=O)C1C (centres undefined)", "class": "FALSE"}
{"compound": "CCOC(=O)c1sc(N/N=C2\\C(=O)N(c3ccccc3)N=C2N)c(C(=O)OCC)c1C", "class": "FALSE"}
{"compound": "COc1ccccc1-c1cc(=O)c2c(=O)n(-c3ccccc3)[nH]c2[nH]1", "class": "FALSE"}
{"compound": "CC(C)(C)C1=NN(c2ccccc2)C(=O)C1", "class": "FALSE"}
{"compound": "O=c1c2cccnc2[nH]c(=S)n1-c1ccccc1", "class": "FALSE"}
